System: PfAP2-HC AP2 domain (GST-tagged)
Experiment: gcPBM binding intensity (ln(normalized median fluorescence intensity)); higher = stronger DNA binding
Whole data set: some 25,000 sequences, median “ln(normalized median fluorescence intensity)” near 9.7, cut for the highest 2% near 11. The sample holds the highest values, similar sequences and a random draw of the others, so the mix is not that of the screen.
gcPBM binding intensity (ln) vs 10: at or above is T, below is F.

Example cases with answers are listed next.
Q. Hello, I need to know if AAATATAAATGGTAATACACATACACACACACATAC [XGTACX_negctrl_site459] has measured gcPBM binding intensity (ln) not below 10. Thanks!
A. T

Q. Evaluate CACATATATACACATACACACACACCCATACACCCA [CACACA_site8505] : gcPBM binding intensity (ln) at minimum 10?
A. T

Q. Hi team, for TATATATACATATACACACACACACCCATATATATA [CACACA_site2246] , is the recorded gcPBM binding intensity (ln) at or above 10?
A. T

New cases:
Q. Please tell me: is the sequence ATTAAAATATAAGTCACACATATATATATATATATA [CACACA_site6145] at or over 10 in terms of gcPBM binding intensity (ln)?
A. F

Q. Identify whether the reported gcPBM binding intensity (ln) of the following sequence is 10 or greater: TATATATATATATACACACACACACCCATATATATA [CACACA_site2538]
A. T
